These entries and their values trace back to patent US20070027088A1.

Please provide measured loss of inhibiting activity compared with original 12-mer peptide for the entries that follow.
- System: human PBMCs stimulated with SEB
- Type: cell-based
Answer with a number only, understood to be in %.

stdin: Output loss of inhibiting activity compared with original 12-mer peptide of "CMYGGVTEHE"
stdout: 54

stdin: Output loss of inhibiting activity compared with original 12-mer peptide of "CMYGGV"
stdout: 52

stdin: Output loss of inhibiting activity compared with original 12-mer peptide of "TEHEGN"
stdout: 48

stdin: Output loss of inhibiting activity compared with original 12-mer peptide of "CMYGGVTEHEG"
stdout: 18
